These measurements were taken from paper PMC5518309.

# assayed system: hY4R (Homo sapiens, UniProt P50391)
# Sequence (P50391 whole entry): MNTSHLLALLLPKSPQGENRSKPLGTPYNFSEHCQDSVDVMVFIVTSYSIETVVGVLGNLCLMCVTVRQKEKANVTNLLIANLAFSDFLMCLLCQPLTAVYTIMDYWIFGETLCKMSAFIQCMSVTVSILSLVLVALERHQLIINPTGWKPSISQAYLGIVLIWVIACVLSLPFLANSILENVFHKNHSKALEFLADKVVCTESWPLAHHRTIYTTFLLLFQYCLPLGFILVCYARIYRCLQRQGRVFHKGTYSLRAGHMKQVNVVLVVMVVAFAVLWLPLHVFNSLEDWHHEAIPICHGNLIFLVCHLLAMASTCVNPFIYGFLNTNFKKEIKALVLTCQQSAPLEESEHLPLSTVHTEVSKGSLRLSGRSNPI
# assay procedure: Inositol phosphate accumulation assay, hY4R
# Type: cell-based
Ends that are not written are not given here.
readout: pEC50
One number for each entry, as −log10 of the molar value.

# substance, meas value
measured = [
    ("PLEPVYPGDNATPEQMAQYAKDLRRYINMLTRPRY-NH2 [compound 8, [K^22]hPP2–36]", 8.72),
]

The record that follows has no pEC50 shown yet.
[in] Using the record for PLEPVYPGDNATPEQMAQYAADLRRYINKLTRPRY-NH2 [14a, [K^30]hPP2–36] , report its pEC50.
[out] 8.85
